Test system: Staphylococcus aureus
Assay: Antibacterial activity against wild type Staphylococcus aureus 4504/A assessed as reduction in microbial growth incubated for 24 hrs by microdilution assay
Format: functional
endpoint-label: log10 of MIC (log10 of the value in µg/mL)

| compound | endpoint-label | reported |
| --- | --- | --- |
| CCCCCCOP(=O)(CCN(CCCNC(=N)N)CCCNC(=N)N)OCCCCCCCCOP(=O)(CCN(CCCNC(=N)N)CCCNC(=N)N)OCCCCCC.Cl.Cl.Cl.Cl.Cl.Cl (stereo not given) | log10 of MIC | -0.60 |
| CC[C@H]1OC(=O)[C@H](C)[C@@H](O[C@H]2C[C@@](C)(OC)[C@@H](O)[C@H](C)O2)[C@H](C)[C@@H](O[C@@H]2O[C@H](C)C[C@H](N(C)C)[C@H]2O)[C@](C)(O)C[C@@H](C)C(=O)[C@H](C)[C@@H](O)[C@]1(C)O | log10 of MIC | -0.60 |
| Cc1onc(-c2ccccc2)c1C(=O)N[C@@H]1C(=O)N2[C@@H]1SC(C)(C)[C@@H]2C(=O)O | log10 of MIC | -0.60 |
| O=C(N[C@H](CO)[C@H](O)c1ccc([N+](=O)[O-])cc1)C(Cl)Cl | log10 of MIC | 0.60 |
| CC1(C)S[C@@H]2[C@H](NC(=O)[C@H](N)c3ccccc3)C(=O)N2[C@H]1C(=O)O | log10 of MIC | -0.30 |
| CCCCCCCCOP(=O)(CCN(CCCN)CCCN)OCCCCOP(=O)(CCN(CCCN)CCCN)OCCCCCCCC.Cl.Cl.Cl.Cl.Cl.Cl (stereo not given) | log10 of MIC | 0.30 |
| CCC[C@@H]1C[C@@H](C(=O)N[C@@H]([C@H]2O[C@H](SC)[C@H](O)[C@@H](O)[C@H]2O)[C@H](C)Cl)N(C)C1 | log10 of MIC | -0.90 |
| O=C(O)c1cn(C2CC2)c2cc(N3CCNCC3)c(F)cc2c1=O | log10 of MIC | -0.60 |
| CCCC/C=C\CCOP(=O)(CCN(CCCN)CCCN)OCCCCCOP(=O)(CCN(CCCN)CCCN)OCC/C=C\CCCC.Cl.Cl.Cl.Cl.Cl.Cl (stereo not given) | log10 of MIC | 0.60 |
| CCCCCCCCOP(=O)(CCN(CCCN)CCCN)OCCCCCCOP(=O)(CCN(CCCN)CCCN)OCCCCCCCC.Cl.Cl.Cl.Cl.Cl.Cl (stereo not given) | log10 of MIC | -0.30 |

###

Test system: Staphylococcus aureus
Experiment: Antibacterial activity against wild type Staphylococcus aureus 4561/A assessed as reduction in microbial growth incubated for 24 hrs by microdilution assay
Assay type: functional
endpoint-label: MIC (µg/mL)

| molecule | endpoint-label | reported |
| --- | --- | --- |
| CCCCCCCCOP(=O)(CCN(CCCN)CCCN)OCCCCCCOP(=O)(CCN(CCCN)CCCN)OCCCCCCCC.Cl.Cl.Cl.Cl.Cl.Cl (stereo not given) | MIC | 0.5 |
| CCCC/C=C\CCOP(=O)(CCN(CCCN)CCCN)OCCCCCOP(=O)(CCN(CCCN)CCCN)OCC/C=C\CCCC.Cl.Cl.Cl.Cl.Cl.Cl (stereo not given) | MIC | 4 |
| CCCCCCCCOP(=O)(CCN(CCCN)CCCN)OCCCCOP(=O)(CCN(CCCN)CCCN)OCCCCCCCC.Cl.Cl.Cl.Cl.Cl.Cl (stereo not given) | MIC | 2 |
| CCCCCCOP(=O)(CCN(CCCNC(=N)N)CCCNC(=N)N)OCCCCCCCCOP(=O)(CCN(CCCNC(=N)N)CCCNC(=N)N)OCCCCCC.Cl.Cl.Cl.Cl.Cl.Cl (stereo not given) | MIC | 0.5 |
| O=C(N[C@H](CO)[C@H](O)c1ccc([N+](=O)[O-])cc1)C(Cl)Cl | MIC | 4 |

###

# Lookup of reported MIC keyed by entry
System: Staphylococcus aureus
Assay: Antibacterial activity against Staphylococcus aureus ATCC 29213 = CCM 4223 assessed as inhibition of bacterial growth incubated for 24 hrs in presence of BSA by microdilution assay
Format: functional

| molecule | MIC |
| --- | --- |
| CCCCCCOP(=O)(CCN(CCCN)CCCN)OCCCCCCOP(=O)(CCN(CCCN)CCCN)OCCCCCC.Cl.Cl.Cl.Cl.Cl.Cl (stereo not drawn) | 16 µg/mL |
| CCCCCCCCOP(=O)(CCN(CCCN)CCCN)OCCCCCCCCCCOP(=O)(CCN(CCCN)CCCN)OCCCCCCCC.Cl.Cl.Cl.Cl.Cl.Cl (stereo not drawn) | 0.125 µg/mL |
| Cl.Cl.Cl.Cl.Cl.Cl.NCCCN(CCCN)CCP(=O)(OCCCCCCOP(=O)(CCN(CCCN)CCCN)OCCC12CC3CC(CC(C3)C1)C2)OCCC12CC3CC(CC(C3)C1)C2 (stereo not drawn) | 0.2 µg/mL |

###

# Lookup of reported MIC keyed by entry
Tested on: Staphylococcus epidermidis
Experiment: Antibacterial activity against Staphylococcus epidermidis CCM 7221 assessed as inhibition of bacterial growth incubated for 24 hrs by microdilution assay
Type: functional

| molecule | units-symbol | MIC |
| --- | --- | --- |
| CC(C)COP(=O)(CCN(CCCN)CCCN)OCCCCCCCCCCOP(=O)(CCN(CCCN)CCCN)OCC(C)C.Cl.Cl.Cl.Cl.Cl.Cl (stereo unspecified) | µg/mL | 8 |
| Cl.Cl.Cl.Cl.Cl.Cl.NCCCN(CCCN)CCP(=O)(OCCCCCCCOP(=O)(CCN(CCCN)CCCN)OCCCC(F)(F)F)OCCCC(F)(F)F (stereo unspecified) | µg/mL | 128 |
| CCCCCCCCCCOP(=O)(CCN(CCCN)CCCN)OCCCCCCOP(=O)(CCN(CCCN)CCCN)OCCCCCCCCCC.Cl.Cl.Cl.Cl.Cl.Cl (stereo unspecified) | µg/mL | 0.5 |
| Cl.Cl.Cl.Cl.Cl.Cl.NCCCN(CCCN)CCP(=O)(OCCCCCCCCOP(=O)(CCN(CCCN)CCCN)OCCc1ccccc1)OCCc1ccccc1 (stereo unspecified) | µg/mL | 8 |
| CC/C=C\CCCOP(=O)(CCN(CCCN)CCCN)OCCCCCOP(=O)(CCN(CCCN)CCCN)OCCC/C=C\CC.Cl.Cl.Cl.Cl.Cl.Cl (stereo unspecified) | µg/mL | 8 |
| CCCCC/C=C\CCOP(=O)(CCN(CCCNC(=N)N)CCCNC(=N)N)OCCCCCOP(=O)(CCN(CCCNC(=N)N)CCCNC(=N)N)OCC/C=C\CCCCC.Cl.Cl.Cl.Cl.Cl.Cl (stereo unspecified) | µg/mL | 1 |

###

# Lookup of reported HC50 at 3 h keyed by entry
Experiment: Hemolytic activity in human RBC assessed as haemoglobin release measured after 3 hr
Assay type: toxicity, cell-based, Erythrocyte
Details: red blood cells (erythrocytes)

| compound | units-symbol | relation-operator | HC50 at 3 h |
| --- | --- | --- | --- |
| Cl.Cl.Cl.Cl.Cl.Cl.N=C(N)NCCCN(CCCNC(=N)N)CCP(=O)(OCCCCCOP(=O)(CCN(CCCNC(=N)N)CCCNC(=N)N)OCC12CC3CC(CC(C3)C1)C2)OCC12CC3CC(CC(C3)C1)C2 (stereo not given) | µg/mL | = | 259 |
| CC/C=C\CCCOP(=O)(CCN(CCCN)CCCN)OCCCCCOP(=O)(CCN(CCCN)CCCN)OCCC/C=C\CC.Cl.Cl.Cl.Cl.Cl.Cl (stereo not given) | µg/mL | > | 200 |
| CCCCCCOP(=O)(CCN(CCCN)CCCN)OCCc1cccc2ccccc12.Cl.Cl.Cl (stereo not given) | µg/mL | > | 100 |
| CCC/C=C\CCOP(=O)(CCN(CCCN)CCCN)OCCCCCCCOP(=O)(CCN(CCCN)CCCN)OCC/C=C\CCC.Cl.Cl.Cl.Cl.Cl.Cl (stereo not given) | µg/mL | > | 200 |
| CCCCOP(=O)(CCN(CCN)CCN)OCCCCCCCCCCOP(=O)(CCN(CCN)CCN)OCCCC.Cl.Cl.Cl.Cl.Cl.Cl (stereo not given) | µg/mL | = | 55 |
| CCCCCCCOP(=O)(CCN(CCCN)CCCN)OCCCCOP(=O)(CCN(CCCN)CCCN)OCCCCCCC.Cl.Cl.Cl.Cl.Cl.Cl (stereo not given) | µg/mL | > | 200 |
| Cl.Cl.Cl.Cl.Cl.Cl.NCCCN(CCCN)CCP(=O)(OCCCOP(=O)(CCN(CCCN)CCCN)OCC12CC3CC(CC(C3)C1)C2)OCC12CC3CC(CC(C3)C1)C2 (stereo not given) | µg/mL | > | 500 |
| CCCCCCCCCOP(=O)(CCN(CCCN)CCCN)OCCc1ccccc1.Cl.Cl.Cl (stereo not given) | µg/mL | = | 58.7 |
| CCCCCCCCCCCCCCOP(=O)(CCN(CCCN)CCCN)OCC.Cl.Cl.Cl (stereo not given) | µg/mL | = | 12.2 |
| CCCCCCCCCCOP(=O)(CCN(CCCN)CCCN)OCCCCCCCCCCOP(=O)(CCN(CCCN)CCCN)OCCCCCCCCCC.Cl.Cl.Cl.Cl.Cl.Cl (stereo not given) | µg/mL | = | 5.2 |
| CCCCCOP(=O)(CCN(CCCN)CCCN)OCCCCCCCCCCCCOP(=O)(CCN(CCCN)CCCN)OCCCCC.Cl.Cl.Cl.Cl.Cl.Cl (stereo not given) | µg/mL | = | 444 |
| Cl.Cl.Cl.Cl.Cl.Cl.NCCCN(CCCN)CCP(=O)(OCCCCCCCCOP(=O)(CCN(CCCN)CCCN)OCCc1ccccc1)OCCc1ccccc1 (stereo not given) | µg/mL | > | 200 |
| CCCCCCCCCCCCCCOP(=O)(CCN(CCCN)CCCN)OCCc1c[nH]c2ccccc12.Cl.Cl.Cl.Cl (stereo not given) | µg/mL | = | 12.4 |
| Cl.Cl.Cl.Cl.Cl.Cl.NCCCN(CCCN)CCP(=O)(OCCCCCCCCCCOP(=O)(CCN(CCCN)CCCN)OCCc1ccccc1)OCCc1ccccc1 (stereo not given) | µg/mL | > | 500 |
| CCCCCCCCOP(=O)(CCN(CCCN)CCCN)OCCCCCCOP(=O)(CCN(CCCN)CCCN)OCCCCCCCC.Cl.Cl.Cl.Cl.Cl.Cl (stereo not given) | µg/mL | = | 162 |
